target: MerTK (Homo sapiens); construct: Seed HUVECs (10K cells/well) in EBM-2 complete media; assay: Phospho-AKT HTRF, HUVEC, Mer-XL, 8 pt (pAKT HTRF-HUVEC assay, anti-human MerTK-XL stimulation); conditions: HUVEC cells, pAkt(Ser473) HTRF, anti-human MerTK-XL stimulation 1 ug/mL 10 minutes
// values below are reported pEC50
In simple prose, pEC50 is minus the logarithm base ten of a concentration in moles per litre.

# COMPOUND, MEASUREMENT TARGET, pEC50
records = [
    ("COc1cc2c(Oc3ccc(NC(=O)c4nc(-c5ccccc5)c5c(n4)C4CCN5CC4)nc3)ccnc2cc1OCc1ccccc1 [Compound 37]", "MerTK (Homo sapiens)", 7.20),
    ("COc1cc2ncnc(Oc3ccc(NC(=O)c4nc(-c5ccccc5)c5c(n4)C4CCN5CC4)nc3)c2cc1OC [Compound 49]", "MerTK (Homo sapiens)", 7.81),
    ("COc1cc2c(Oc3ccc(NC(=O)c4csc(N5CCC(O)CC5)n4)nc3)ccnc2cc1OCCCN1CCOCC1 [Compound 41]", "MerTK (Homo sapiens)", 6.19),
]

So what's the measured pEC50 for this one? COc1cc2c(Oc3ccc(NC(=O)c4cc(N5CC6(CCOCC6)C5)ccn4)nc3)ccnc2cc1OCCCN1CCOCC1 [Compound 18]
7.01

COc1cc2c(Oc3ccc(NC(=O)c4csc(-c5ccc(F)cc5)n4)nc3)ccnc2cc1OCCCN1CCOCC1 [Compound 43] ?
7.35

COc1cc2c(Oc3ccc(NC(=O)c4cc(-c5ccccc5)ccn4)nc3)ccnc2cc1OCCCN1CCOCC1 [Compound 3] ?
7.01

COc1ccnc(C(=O)Nc2ccc(Oc3ccnc4cc(OCCCN5CCOCC5)c(OC)cc34)cn2)c1 [Compound 33] ?
6.79

COc1cc2c(Oc3ccc(NC(=O)c4cccc(N5CCCC5)n4)nc3)ccnc2cc1OCCCN1CCOCC1 [Compound 26] ?
8.15

====

// values below are reported log10 EC50
Biological target: MerTK (Homo sapiens, UniProt Q12866)
Construct: Seed HUVECs (10K cells/well) in EBM-2 complete media; host or cells: HUVEC
Sequence (Q12866 21-999): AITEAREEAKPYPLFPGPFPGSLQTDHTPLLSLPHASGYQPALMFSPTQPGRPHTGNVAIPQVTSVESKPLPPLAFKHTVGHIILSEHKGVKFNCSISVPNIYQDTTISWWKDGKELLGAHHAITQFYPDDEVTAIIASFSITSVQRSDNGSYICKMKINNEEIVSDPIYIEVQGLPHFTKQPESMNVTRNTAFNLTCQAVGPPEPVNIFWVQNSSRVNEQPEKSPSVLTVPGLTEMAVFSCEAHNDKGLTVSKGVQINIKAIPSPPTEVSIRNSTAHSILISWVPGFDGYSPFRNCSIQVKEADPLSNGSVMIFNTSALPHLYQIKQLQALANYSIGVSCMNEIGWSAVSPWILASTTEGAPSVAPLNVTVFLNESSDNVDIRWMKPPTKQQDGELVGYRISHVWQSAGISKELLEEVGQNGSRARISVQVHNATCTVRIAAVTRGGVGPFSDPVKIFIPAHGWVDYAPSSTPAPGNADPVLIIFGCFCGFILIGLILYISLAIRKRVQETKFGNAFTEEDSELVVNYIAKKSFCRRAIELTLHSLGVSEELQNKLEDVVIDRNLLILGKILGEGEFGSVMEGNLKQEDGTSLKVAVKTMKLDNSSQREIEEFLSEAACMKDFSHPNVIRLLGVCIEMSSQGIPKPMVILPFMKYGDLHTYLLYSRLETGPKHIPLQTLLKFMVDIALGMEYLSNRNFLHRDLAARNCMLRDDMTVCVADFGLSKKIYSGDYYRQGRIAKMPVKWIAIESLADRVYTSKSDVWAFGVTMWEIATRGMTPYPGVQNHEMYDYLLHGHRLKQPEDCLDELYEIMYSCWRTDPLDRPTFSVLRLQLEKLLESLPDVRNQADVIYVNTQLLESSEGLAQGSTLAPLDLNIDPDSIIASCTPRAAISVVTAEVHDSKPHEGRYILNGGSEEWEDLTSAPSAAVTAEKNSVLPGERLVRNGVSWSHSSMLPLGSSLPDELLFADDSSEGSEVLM
Test: Phospho-AKT HTRF, HUVEC, Mer-XL, 8 pt (pAKT HTRF-HUVEC assay, anti-human MerTK-XL stimulation)
Format: cell-based
Settings: HUVEC cells, pAkt(Ser473) HTRF, anti-human MerTK-XL stimulation 1 ug/mL 10 minutes
Transform log10 | Measure EC50 | Unit nM

Use the examples below as a reference point.
# MOLECULE, MEASUREMENT TARGET, log10 EC50
data = [
    ("CCOC1CCN(c2ccnc(C(=O)Nc3ccc(Oc4ccnc5cc(OCCCN6CCOCC6)c(OC)cc45)cn3)c2)CC1", "MerTK (Homo sapiens, UniProt Q12866)", 2.31),
    ("COc1cc2c(Oc3ccc(NC(=O)c4cc(N5CCC(C)(C)CC5)ccn4)nc3)ccnc2cc1OCCCN1CCOCC1", "MerTK (Homo sapiens, UniProt Q12866)", 1.98),
    ("COc1cc2c(Oc3ccc(NC(=O)c4ncc(-c5ccccc5)s4)nc3)ccnc2cc1OCCCN1CCOCC1", "MerTK (Homo sapiens, UniProt Q12866)", 2.38),
    ("COc1cc2c(Oc3ccc(NC(=O)c4cc(N5CC(F)(F)C5)ccn4)nc3)ccnc2cc1OCCCN1CCOCC1", "MerTK (Homo sapiens, UniProt Q12866)", 2.32),
    ("COc1cc2c(Oc3ccc(NC(=O)c4nc5ccccc5c(=O)[nH]4)nc3)ccnc2cc1OCCCN1CCOCC1 [Compound 12]", "MerTK (Homo sapiens, UniProt Q12866)", 1.86),
]

Entry `COc1cc2c(Oc3ccc(NC(=O)c4cc(N5CCC(c6ccccc6)CC5)ccn4)nc3)ccnc2cc1OCCCN1CCOCC1` , system MerTK (Homo sapiens, UniProt Q12866): what log10 EC50 was measured?
3.21

`COc1cc2c(Oc3ccc(NC(=O)c4cccc(N5CCCCC5)n4)nc3)ccnc2cc1OCCCN1CCOCC1` ?
1.11

Cited source for all entries: patent US10851093B2
